Values from patent US20190010233A1

The entries below are paired with their reported IFN-γ (pg/mL), PBMC stimulation, 1 µg/mL mAb.
target: full length human PD-L1 on cells (human, UniProt Q9NZQ7 19-290); assay: cell-based or functional assay
Sequence (Q9NZQ7 19-290 limits assumed): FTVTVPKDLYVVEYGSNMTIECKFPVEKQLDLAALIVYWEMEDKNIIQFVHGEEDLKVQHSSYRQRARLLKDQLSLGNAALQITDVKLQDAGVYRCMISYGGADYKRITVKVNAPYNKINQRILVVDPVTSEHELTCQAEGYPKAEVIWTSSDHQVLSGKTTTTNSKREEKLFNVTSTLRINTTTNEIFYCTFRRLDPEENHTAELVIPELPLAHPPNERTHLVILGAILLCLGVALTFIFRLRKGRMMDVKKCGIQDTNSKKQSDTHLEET
Expressed in pg/mL, but write only the number.

Below are worked cases with known answers.
chimeric anti-PD-L1 antibody 105C5D7 (antibody, V domains shown, Purified from hybridoma of Harbour H2L2 mice: human variable regions, rat constant regions) VH: EVQLVESGGGLVQPGGSLRLSCAASGFTFSSYWMSWVRQAPGKGLEWVANIKQDGNEKYYVDSVKGRFTISRDNAKNSLYLQMNSLRAEDTAVYYCARNIKWGDAFDIWGQGTMVTVSS VL: DIQMTQSPSSLSASVGDRVTITCRASQSISSYLNWYQQKPGKAPKLLIYAASSLQSGVPSRFSGSGSGTDFTLTISSLQPEDFAIYSCQQSYSIPLTFGGGTKVEIK :: 7570
chimeric anti-PD-L1 antibody 73D3G2 (antibody, V domains shown, Purified from hybridoma of Harbour H2L2 mice: human variable regions, rat constant regions) VH: EVQLVESGGGLVQPGGSLRLSCAASGFTFNTYWMNWVRQAPGRGLEWVANIKQDGGEKYYVDSVKGRFTISRDNAKNSLYLQMNSLRAEDTAMYYCARDGRSWYPDAFDIWGQGTVVTVSS VL: DIQMTQSPSTLSASVGDRVTITCRASQSISTWLAWYQQKLGKAPKLLIYEVSILESGVPSRFSGSGSGTEFTLTISSLQPDDFATYYCQQYHSFSSFGGGTRVEIK :: 8760
chimeric anti-PD-L1 antibody 78A11F6 (antibody, V domains shown, Purified from hybridoma of Harbour H2L2 mice: human variable regions, rat constant regions) VH: EVQLVESGGGLVQPGGSLRLSCAASGITFSSYWMSWVRQTPGKGLEWVANIKQDGSEKYYVKSVKGRFTISRDNAKNSLYLQMNSLRAEDTAVYYCVRDRAVPGTGAFDIWGQGTMVIVSS VL: DIQMTQSPSTLSASVGDRVTITCRASQSISNWLAWYQQKPGKAPKLLIYKASSLESGVPSRFSGSGSGTEFTLTISSLQPDDFATYYCQQYDSSLFTFGQGTKLEIK :: 13000

Q: Using the record for chimeric anti-PD-L1 antibody 127D2F3 (antibody, V domains shown, Purified from hybridoma of Harbour H2L2 mice: human variable regions, rat constant regions) VH: EVQLVESGGGLVQPGGSLRLSCVASGFTFSSYWMSWVRQAPGKGLEWVANIKQDGSEKYYVDSVKGRLTISRDNAKNSLYLQMKSLRAEDTAVYYCARDPIYSSYFDYWGQGILVTVSS VL: DIQMTQSPSSLSASVGDRVTITCRASQSISNYLNWYQQKPGKAPKLLIYAASSLQSGVPSRFSGSGSGTDFTLTISSLQPEDFAAYYCQQSYGIPFTFGPGTKVDIK , report its IFN-γ (pg/mL), PBMC stimulation, 1 µg/mL mAb.
Result: 8100
